B1: tRNA (parent)
chain: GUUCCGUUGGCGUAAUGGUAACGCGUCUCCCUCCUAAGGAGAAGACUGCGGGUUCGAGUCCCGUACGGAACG

- Variants of: B1
- assay-protocol: yeast fitness relative to wild type (ratio to wild type); higher = fitter; tRNA-Arg(CCU), competitive growth, 37 C, YPD
Variants at the floor of the assay were thinned out.
Give yeast fitness for every item shown.
Answers are plain numbers.

GUUCCGUUGGCCAAAUGGUAACACGUCUCCCUCCUACGGAGAAGACUGCGGGUUCGAGUCUCGUACGGAACG ... 0.586
GUUCCGUUGGCGUAAUGGUAACGCGUCUCCCUCUUAACGAGAAGACUGCGGGUUCGAGUCCCGUACGGAACG ... 0.605

Now examine the next entry.
// yeast fitness value for "GUUCCGUUGGCGUAAUGGUAACGCGUCUACCUCCUAAAGAGAAGACUGCGGGUUCGAGUCCCGUACGGUACG" : 0.583
